system: influenza virus A/WSN RG#1-1 strains; assay: microbe, parasite or virus in culture; assay type: cell-based; conditions: unidentified influenza virus, WSN, A549, 48 h, read-out: IC50 (50% virus replication inhibitory concentration)
QUANTITY_KIND: IC50 (µM)
One number for each entry, in µM.

Examples from the recorded data:
[[record]]
compound = "N#C/C(=C\\c1ccc(O)c(O)c1)C(=O)NCc1ccccc1 [Compound J4]"
target_under_test = "influenza virus A/WSN RG#1-1 strains"
quantity_kind = "IC50"
endpoint_result = 31.6

[[record]]
compound = "O=C(Nc1nc2cccc(-c3ccc(CN4CCS(=O)(=O)CC4)cc3)n2n1)C1CC1 [Compound J19]"
target_under_test = "influenza virus A/WSN RG#1-1 strains"
quantity_kind = "IC50"
endpoint_result = 31.6

[[record]]
compound = "CN1C/C=C/CCOc2cccc(c2)-c2ccnc(n2)Nc2cccc(c2)C1 [Compound J23]"
target_under_test = "influenza virus A/WSN RG#1-1 strains"
quantity_kind = "IC50"
endpoint_result = 0.0316


Please look at the following compound next.
Tell me its IC50 given O=C(Nc1c[nH]nc1-c1nc2cc(CN3CCOCC3)ccc2[nH]1)NC1CC1 [Compound J7] as the entry.
3.16

Source of measurements: patent US20170290821A1
